Value source: the kinase profiling compilation of Christmann-Franck et al. (2016)

# MEASURED_TARGET: PBK (human) (UniProt Q96KB5)
# Sequence (Q96KB5 whole entry, looked up): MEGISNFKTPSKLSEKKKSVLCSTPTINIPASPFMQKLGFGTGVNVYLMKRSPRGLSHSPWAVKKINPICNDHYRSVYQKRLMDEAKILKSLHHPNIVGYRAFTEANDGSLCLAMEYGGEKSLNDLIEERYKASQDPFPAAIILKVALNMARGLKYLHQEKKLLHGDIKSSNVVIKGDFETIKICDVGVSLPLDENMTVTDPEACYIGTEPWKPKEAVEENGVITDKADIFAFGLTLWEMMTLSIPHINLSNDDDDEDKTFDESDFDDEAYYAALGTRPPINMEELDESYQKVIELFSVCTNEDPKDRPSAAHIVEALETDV
# TEST_METHOD_NOTES: radiometric filter-binding kinase assay, Kinase HotSpot
# RUN_PARAMETERS: compound 0.5 µM; ATP 10 µM
Would you kindly list residual activity for each of these compounds?
One number for each entry, in %.

Lab note: "O=C1Nc2ccc(Cl)cc2/C1=C/c1cc(Cl)c(O)c(Cl)c1" gave residual activity of 86.1

Lab note: "COc1ccc(COc2ccc(Cc3cnc(N)nc3N)cc2OC)cc1" gave residual activity of 99.4

Lab note: "COc1ccc2c(c[n+](C)c3c4cc5c(cc4ccc23)OCO5)c1OC" gave residual activity of 102

Lab note: "O=C1NC(=O)C(c2cn(CCCn3ccnc3)c3ccccc23)=C1Nc1ccccc1" gave residual activity of 104

Lab note: "CCN(CC)C(=O)c1ccc(Nc2nc(OCC3CCCCC3)c3nc[nH]c3n2)cc1" gave residual activity of 116

For every item below, please supply its residual activity.
1. CC(C)N(CCC(=O)c1ccc2ccccc2c1)Cc1ccccc1
2. Nc1cccc(-c2cc3c(Oc4cccc(O)c4)ncnc3[nH]2)c1
3. CCN(CC)CCNC(=O)c1c(C)[nH]c(/C=C2\C(=O)Nc3ccc(F)cc32)c1C
4. CCCC(=O)Oc1ccc2[nH]c(C(=O)c3cc4ccccc4[nH]3)cc2c1
5. Cc1ccc(NC2=CC(=O)c3sc(C)nc3C2=O)cc1
6. c1ccc(-c2n[nH]c3c2oc2ccccc23)cc1
7. CC[n+]1c(/C=C/N(C)c2ccccc2)n(-c2ccccc2)c2ccc(-c3nc4ccccc4s3)cc21
8. Cc1ccc(Nc2nccc(N(C)c3ccc4c(C)n(C)nc4c3)n2)cc1S(N)(=O)=O

Output line:
[108, 93.9, 106, 104, 85.8, 94.8, 107, 101]

For every item below, please supply its residual activity.
1. CC#CC(=O)Nc1cc2c(Nc3ccc(F)c(Cl)c3)ncnc2cn1
2. CCOC(=O)c1c(C)[nH]c(/C=C2\C(=O)Nc3ccccc32)c1C

Output line:
1: 99.9; 2: 85

---

# MEASURED_TARGET: SRC (human)
# TEST_METHOD_NOTES: radiometric filter-binding kinase assay, Kinase HotSpot
# RUN_PARAMETERS: compound 0.5 µM; ATP 10 µM
Would you kindly list residual activity for each of these molecules?
Answers are plain numbers, in %.

Lab note: "N#C/C(=C(/N)Sc1ccc(N)cc1)c1ccccc1C(F)(F)F" gave residual activity of 94.1

Lab note: "CCCC(=O)Oc1ccc2[nH]c(C(=O)c3cc4ccccc4[nH]3)cc2c1" gave residual activity of 97

Lab note: "CCOC(=O)c1c(C)[nH]c(/C=C2\C(=O)Nc3ccccc32)c1C" gave residual activity of 93.8

For every item below, please supply its residual activity.
1. Cc1[nH]c(/C=C2\C(=O)Nc3ccc(S(=O)(=O)N(C)c4cccc(Cl)c4)cc32)c(C)c1C(=O)N1CCN(C)CC1
2. Oc1cccc(-c2nc(N3CCOCC3)c3oc4ncccc4c3n2)c1

Output line:
53.3
97.2

For every item below, please supply its residual activity.
1. Cc1ccc(S(=O)(=O)/C=C/C#N)cc1
2. CCN(CC)CCNC(=O)c1c(C)[nH]c(/C=C2\C(=O)Nc3ccc(Cl)cc32)c1C
3. Nc1cccc(-c2cc3c(Oc4cccc(O)c4)ncnc3[nH]2)c1
4. COc1ccc2c(c[n+](C)c3c4cc5c(cc4ccc23)OCO5)c1OC
5. O=C1NC(=O)C(c2cn(CCCn3ccnc3)c3ccccc23)=C1Nc1ccccc1
6. O=C1NC(=O)c2c1c1c3ccccc3n3c1c1c2c2ccccc2n1C1CCC3O1
7. CC#CC(=O)Nc1cc2c(Nc3ccc(F)c(Cl)c3)ncnc2cn1

Output line:
[102, 26, 2.07, 91.5, 100, 69.5, 97.7]

---

Would you kindly list residual activity for each of these molecules?
# MEASURED_TARGET: UniProt Q5S007
# Sequence (Q5S007 whole entry, looked up): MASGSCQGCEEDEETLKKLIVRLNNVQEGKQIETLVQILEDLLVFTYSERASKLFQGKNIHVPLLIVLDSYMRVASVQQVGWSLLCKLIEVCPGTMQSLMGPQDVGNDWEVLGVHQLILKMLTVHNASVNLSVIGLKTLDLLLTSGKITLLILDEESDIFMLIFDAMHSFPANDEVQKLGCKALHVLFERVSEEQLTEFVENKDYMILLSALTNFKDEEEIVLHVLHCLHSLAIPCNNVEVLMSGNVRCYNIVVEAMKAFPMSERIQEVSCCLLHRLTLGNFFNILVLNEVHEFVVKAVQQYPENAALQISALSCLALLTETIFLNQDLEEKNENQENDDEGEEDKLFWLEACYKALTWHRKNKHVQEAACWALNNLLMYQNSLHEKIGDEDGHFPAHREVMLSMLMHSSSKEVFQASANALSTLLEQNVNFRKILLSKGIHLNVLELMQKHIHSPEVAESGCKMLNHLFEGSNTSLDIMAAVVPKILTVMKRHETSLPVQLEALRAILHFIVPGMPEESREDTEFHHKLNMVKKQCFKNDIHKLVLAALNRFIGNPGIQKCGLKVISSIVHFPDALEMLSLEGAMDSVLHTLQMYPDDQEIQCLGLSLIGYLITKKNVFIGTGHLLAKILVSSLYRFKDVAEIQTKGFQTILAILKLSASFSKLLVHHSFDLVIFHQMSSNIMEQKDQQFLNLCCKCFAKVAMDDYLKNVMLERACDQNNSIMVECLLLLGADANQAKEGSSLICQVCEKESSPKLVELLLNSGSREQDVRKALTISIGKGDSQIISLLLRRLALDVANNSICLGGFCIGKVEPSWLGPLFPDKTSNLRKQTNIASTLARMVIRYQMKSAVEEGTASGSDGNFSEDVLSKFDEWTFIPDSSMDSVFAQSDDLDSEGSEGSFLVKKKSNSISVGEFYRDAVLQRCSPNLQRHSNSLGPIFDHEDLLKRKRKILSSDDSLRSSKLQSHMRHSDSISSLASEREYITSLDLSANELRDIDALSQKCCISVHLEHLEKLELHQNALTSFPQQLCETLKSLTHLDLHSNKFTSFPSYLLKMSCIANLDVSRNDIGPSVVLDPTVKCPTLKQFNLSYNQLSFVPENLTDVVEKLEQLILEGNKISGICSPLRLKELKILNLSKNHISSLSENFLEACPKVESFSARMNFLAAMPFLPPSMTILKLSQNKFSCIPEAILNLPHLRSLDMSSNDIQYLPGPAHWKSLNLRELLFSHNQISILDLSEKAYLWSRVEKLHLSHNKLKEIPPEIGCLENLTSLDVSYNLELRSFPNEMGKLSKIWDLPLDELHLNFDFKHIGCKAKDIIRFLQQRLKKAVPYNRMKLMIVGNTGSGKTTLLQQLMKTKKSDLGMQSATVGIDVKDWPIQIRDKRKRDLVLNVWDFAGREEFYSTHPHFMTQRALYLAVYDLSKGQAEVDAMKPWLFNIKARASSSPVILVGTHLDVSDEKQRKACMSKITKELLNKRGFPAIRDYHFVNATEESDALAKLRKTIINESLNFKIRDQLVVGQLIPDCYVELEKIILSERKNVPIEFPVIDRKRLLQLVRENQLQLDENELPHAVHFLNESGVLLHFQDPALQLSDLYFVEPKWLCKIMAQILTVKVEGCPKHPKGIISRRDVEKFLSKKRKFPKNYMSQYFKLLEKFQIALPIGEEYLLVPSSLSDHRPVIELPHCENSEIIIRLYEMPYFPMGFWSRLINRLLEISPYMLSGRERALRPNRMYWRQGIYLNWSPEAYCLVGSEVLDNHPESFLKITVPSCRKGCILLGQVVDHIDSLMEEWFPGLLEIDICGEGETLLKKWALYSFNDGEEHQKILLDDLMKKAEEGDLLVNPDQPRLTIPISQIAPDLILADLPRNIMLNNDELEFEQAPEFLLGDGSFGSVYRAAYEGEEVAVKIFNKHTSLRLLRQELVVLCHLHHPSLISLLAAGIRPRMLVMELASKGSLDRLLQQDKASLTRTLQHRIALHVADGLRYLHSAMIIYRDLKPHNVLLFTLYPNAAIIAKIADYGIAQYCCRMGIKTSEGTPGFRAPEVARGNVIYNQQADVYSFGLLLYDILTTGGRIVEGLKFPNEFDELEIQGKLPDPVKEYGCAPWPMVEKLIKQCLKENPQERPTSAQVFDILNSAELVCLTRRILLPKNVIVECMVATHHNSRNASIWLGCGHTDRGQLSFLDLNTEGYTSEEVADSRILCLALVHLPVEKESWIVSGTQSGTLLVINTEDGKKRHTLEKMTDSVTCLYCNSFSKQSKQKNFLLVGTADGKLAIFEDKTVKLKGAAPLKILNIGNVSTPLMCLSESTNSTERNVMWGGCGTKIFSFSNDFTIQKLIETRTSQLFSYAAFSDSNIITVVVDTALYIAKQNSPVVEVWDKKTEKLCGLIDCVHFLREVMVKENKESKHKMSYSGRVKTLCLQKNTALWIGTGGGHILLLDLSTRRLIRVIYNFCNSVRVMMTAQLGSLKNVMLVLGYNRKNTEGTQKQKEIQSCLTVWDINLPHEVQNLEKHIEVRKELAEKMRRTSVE
# TEST_METHOD_NOTES: radiometric filter-binding kinase assay, Kinase HotSpot
# RUN_PARAMETERS: compound 0.5 µM; ATP 10 µM
Numbers only, in %.

Lab note: "CNC(=O)c1cc(Oc2ccc(NC(=O)Nc3ccc(Cl)c(C(F)(F)F)c3)cc2)ccn1" gave residual activity of 106

Lab note: "CCC(=O)Nc1ccc2ncnc(Nc3cccc(Br)c3)c2c1" gave residual activity of 92.4

For every item below, please supply its residual activity.
1. CO[C@H]1CC2CC[C@@H](C)[C@@](O)(O2)C(=O)C(=O)N2CCCC[C@H]2C(=O)OC([C@H](C)C[C@@H]2CC[C@@H](O)[C@H](OC)C2)CC(=O)[C@H](C)/C=C(\C)[C@@H](O)[C@@H](OC)C(=O)[C@H](C)C[C@H](C)/C=C/C=C/C=C/1C (some centres undefined)
2. Nc1cccc(-c2cc3c(Oc4cccc(O)c4)ncnc3[nH]2)c1

Output line:
1: 98.7; 2: 93.4

For every item below, please supply its residual activity.
1. CC[n+]1c(/C=C/N(C)c2ccccc2)n(-c2ccccc2)c2ccc(-c3nc4ccccc4s3)cc21
2. O=C1NC(=O)c2c1c1c3ccccc3n3c1c1c2c2ccccc2n1C1CCC3O1
3. CC(=O)c1ccc(N2CCOCC2)cc1O
4. COc1ccc(COc2ccc(Cc3cnc(N)nc3N)cc2OC)cc1
5. O=C1Nc2ccc(Cl)cc2/C1=C/c1cc(Cl)c(O)c(Cl)c1

Output line:
1. 95.5
2. 1.91
3. 96.1
4. 92.6
5. 11

---

Would you kindly list residual activity for each of these compounds?
# MEASURED_TARGET: PAK1 (human) (UniProt Q13153)
# Sequence (Q13153 whole entry, looked up): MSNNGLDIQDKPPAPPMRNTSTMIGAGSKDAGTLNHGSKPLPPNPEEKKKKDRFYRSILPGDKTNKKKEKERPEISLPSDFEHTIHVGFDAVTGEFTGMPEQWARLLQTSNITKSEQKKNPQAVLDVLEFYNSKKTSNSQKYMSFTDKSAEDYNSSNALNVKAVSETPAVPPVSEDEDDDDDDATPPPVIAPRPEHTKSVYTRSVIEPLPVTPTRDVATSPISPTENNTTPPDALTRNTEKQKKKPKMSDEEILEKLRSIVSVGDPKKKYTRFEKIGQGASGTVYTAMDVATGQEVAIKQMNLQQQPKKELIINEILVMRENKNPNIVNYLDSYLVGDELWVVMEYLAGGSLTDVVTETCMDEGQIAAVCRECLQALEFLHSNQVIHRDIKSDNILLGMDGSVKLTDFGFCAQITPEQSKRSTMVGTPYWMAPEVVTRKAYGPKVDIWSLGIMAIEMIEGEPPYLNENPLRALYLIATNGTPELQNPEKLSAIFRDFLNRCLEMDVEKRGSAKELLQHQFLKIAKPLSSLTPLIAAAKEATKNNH
# TEST_METHOD_NOTES: radiometric filter-binding kinase assay, Kinase HotSpot
# RUN_PARAMETERS: compound 0.5 µM; ATP 10 µM
One number for each entry, in %.

Reference set (5 entries):
Lab note: "CNC(=O)c1cc(Oc2ccc(NC(=O)Nc3ccc(Cl)c(C(F)(F)F)c3)cc2)ccn1" gave residual activity of 108

Lab note: "Cc1ccc(NC2=CC(=O)c3sc(C)nc3C2=O)cc1" gave residual activity of 87.5

Lab note: "N#C/C(=C(/N)Sc1ccc(N)cc1)c1ccccc1C(F)(F)F" gave residual activity of 94.3

Lab note: "CNc1cc2c(Nc3cccc(Br)c3)ncnc2cn1" gave residual activity of 94.9

Lab note: "O=C(Nc1cccc(Nc2nccc(Nc3cccc(C(F)(F)F)c3)n2)c1)C1CC1" gave residual activity of 89.5

For every item below, please supply its residual activity.
1. Nc1ncnc2[nH]nc(Nc3ccc(F)cc3)c12
2. Nc1ncnc2c1c(-c1ccc(Oc3ccccc3)cc1)cn2C1CCCC1
3. CC[n+]1c(/C=C/N(C)c2ccccc2)n(-c2ccccc2)c2ccc(-c3nc4ccccc4s3)cc21
4. O=c1cc(N2CCOCC2)oc2c1ccc1ccccc12

Output line:
1: 95.2; 2: 96; 3: 87.5; 4: 93.5

For every item below, please supply its residual activity.
1. CCCC(=O)Oc1ccc2[nH]c(C(=O)c3cc4ccccc4[nH]3)cc2c1
2. c1ccc(-c2n[nH]cc2-c2ccnc3ccccc23)nc1

Output line:
95.8
96.3

For every item below, please supply its residual activity.
1. O=S(=O)(c1cccc2cnccc12)N1CCCNCC1
2. O=C1NC(=O)c2c1c1c3ccccc3n3c1c1c2c2ccccc2n1C1CCC3O1
3. COc1ccc(COc2ccc(Cc3cnc(N)nc3N)cc2OC)cc1
4. CCN(CC)C(=O)c1ccc(Nc2nc(OCC3CCCCC3)c3nc[nH]c3n2)cc1
5. CCN(CC)CCNC(=O)c1c(C)[nH]c(/C=C2\C(=O)Nc3ccc(Cl)cc32)c1C

Output line:
1. 94.6
2. 23.6
3. 93.4
4. 93.8
5. 93.4

For every item below, please supply its residual activity.
1. CC(=O)c1ccc(N2CCOCC2)cc1O
2. N#CC(C#N)=C(N)/C(C#N)=C/c1ccc(O)cc1
3. Cc1ccc(Nc2nccc(N(C)c3ccc4c(C)n(C)nc4c3)n2)cc1S(N)(=O)=O
4. COc1cc2ncnc(Nc3cccc(Cl)c3)c2cc1OC
5. Nc1cccc(-c2cc3c(Oc4cccc(O)c4)ncnc3[nH]2)c1

Output line:
1. 93.7
2. 90.9
3. 89.1
4. 89.3
5. 88

For every item below, please supply its residual activity.
1. CC#CC(=O)Nc1cc2c(Nc3ccc(F)c(Cl)c3)ncnc2cn1
2. O=C1Nc2ccc(Cl)cc2/C1=C/c1cc(Cl)c(O)c(Cl)c1

Output line:
94.5
97.2

---

Would you kindly list residual activity for each of these compounds?
# MEASURED_TARGET: FRK (human)
# TEST_METHOD_NOTES: radiometric filter-binding kinase assay, Kinase HotSpot
# RUN_PARAMETERS: compound 0.5 µM; ATP 10 µM
Give bare numbers, in %.

Lab note: "Cc1ccc(S(=O)(=O)/C=C/C#N)cc1" gave residual activity of 91.6

Lab note: "Cc1[nH]c(/C=C2\C(=O)Nc3ccc(S(=O)(=O)N(C)c4cccc(Cl)c4)cc32)c(C)c1C(=O)N1CCN(C)CC1" gave residual activity of 95.4

Lab note: "N#C/C(=C(/N)Sc1ccc(N)cc1)c1ccccc1C(F)(F)F" gave residual activity of 102

For every item below, please supply its residual activity.
1. CC[n+]1c(/C=C/N(C)c2ccccc2)n(-c2ccccc2)c2ccc(-c3nc4ccccc4s3)cc21
2. CC#CC(=O)Nc1cc2c(Nc3ccc(F)c(Cl)c3)ncnc2cn1
3. CCN(CC)CCNC(=O)c1c(C)[nH]c(/C=C2\C(=O)Nc3ccc(Cl)cc32)c1C
4. O=C1NC(=O)/C(=C/c2ccc3c(c2)OC(F)(F)O3)S1
5. O=C1Nc2ccc(Cl)cc2/C1=C/c1cc(Cl)c(O)c(Cl)c1
6. Nc1ccc2ncnc(NCCc3ccc(Oc4ccccc4)cc3)c2c1

Output line:
1: 97.1; 2: 102; 3: 59.3; 4: 93.4; 5: 70.3; 6: 100

Lab note: "c1ccc(-c2n[nH]cc2-c2ccnc3ccccc23)nc1" gave residual activity of 92.8
